System: HSC-2 squamous cell carcinoma cells
assay.summary: Cytotoxicity (MTT, 48 h) against HSC-2 cells
Format: cell-based, human
experimental.setup: 48 h, MTT, mean ± S.D. of triplicate
Each entry below lists one item and its recorded CC50 value.
readout.kind: CC50 (nM)

O=C1C(=Cc2ccc(F)c(F)c2)CN(C(=O)C(Cl)Cl)CC1=Cc1ccc(F)c(F)c1
200
O=C1C(=Cc2ccc(F)cc2)CN(C(=O)C(Cl)Cl)CC1=Cc1ccc(F)cc1
250
Cc1ccc(C=C2CN(C(=O)C(Cl)Cl)CC(=Cc3ccc(C)cc3)C2=O)cc1
260
O=C1C(=Cc2ccc(Cl)c(Cl)c2)CN(C(=O)C(Cl)Cl)CC1=Cc1ccc(Cl)c(Cl)c1
80
O=C1C(=Cc2ccccc2)CN(C(=O)C(Cl)Cl)CC1=Cc1ccccc1
670
O=C1/C(=C/c2ccc3c(c2)OCO3)CN(C(=O)C(Cl)Cl)C/C1=C\c1ccc2c(c1)OCO2
360
COc1cc(/C=C2\CN(C(=O)C(Cl)Cl)C/C(=C\c3cc(OC)c(OC)c(OC)c3)C2=O)cc(OC)c1OC
140
CN(C)c1ccc(C=C2CN(C(=O)C(Cl)Cl)CC(=Cc3ccc(N(C)C)cc3)C2=O)cc1
14900
COc1ccc(/C=C2\CN(C(=O)C(Cl)Cl)C/C(=C\c3ccc(OC)cc3)C2=O)cc1
520

###

Each entry below lists one item and its recorded CC50 value.
System: pulp cells (HPC)
assay.summary: Cytotoxicity (MTT, 48 h) against HPC non-malignant cells
Type: cell-based, human
experimental.setup: mean ± S.D. of triplicate
Description: […]
readout.kind: CC50 (µM)

COc1ccc(/C=C2\CN(C(=O)C(Cl)Cl)C/C(=C\c3ccc(OC)cc3)C2=O)cc1
3.62
O=C1C(=Cc2ccccc2)CN(C(=O)C(Cl)Cl)CC1=Cc1ccccc1
2.88
O=C1/C(=C/c2ccc3c(c2)OCO3)CN(C(=O)C(Cl)Cl)C/C1=C\c1ccc2c(c1)OCO2
2.78
CN(C)c1ccc(C=C2CN(C(=O)C(Cl)Cl)CC(=Cc3ccc(N(C)C)cc3)C2=O)cc1
122
O=C1C(=Cc2ccc(Cl)c(Cl)c2)CN(C(=O)C(Cl)Cl)CC1=Cc1ccc(Cl)c(Cl)c1
0.49

###

Test system: Ca9-22, HSC-2, HSC-3, and HSC-4 cells
assay.summary: Average cytotoxicity, selectivity and PSE over the four carcinoma lines
Type: cell-based, human
experimental.setup: average over Ca9-22, HSC-2, HSC-3, HSC-4
Parameter class (string): assigned from measured CC50. Ranges: low group = under 300 nM, middle group = from 300 nM up to 800 nM, high group = 800 nM and over

O=C1C(=Cc2ccccc2)CN(C(=O)C(Cl)Cl)CC1=Cc1ccccc1
middle group
CN(C)c1ccc(C=C2CN(C(=O)C(Cl)Cl)CC(=Cc3ccc(N(C)C)cc3)C2=O)cc1
high group
O=C1/C(=C/c2ccc3c(c2)OCO3)CN(C(=O)C(Cl)Cl)C/C1=C\c1ccc2c(c1)OCO2
middle group
O=C1C(=Cc2ccc(F)cc2)CN(C(=O)C(Cl)Cl)CC1=Cc1ccc(F)cc1
low group
O=C1C(=Cc2ccc(Cl)c(Cl)c2)CN(C(=O)C(Cl)Cl)CC1=Cc1ccc(Cl)c(Cl)c1
low group
Cc1ccc(C=C2CN(C(=O)C(Cl)Cl)CC(=Cc3ccc(C)cc3)C2=O)cc1
middle group
O=C1C(=Cc2ccc(F)c(F)c2)CN(C(=O)C(Cl)Cl)CC1=Cc1ccc(F)c(F)c1
low group
O=C([O-])C(Cl)Cl.[Na+] [SDA, sodium dichloroacetate, reference compound]
high group
